condition-set: a range is the spread between reports
List of melting point values.

-- ask What does the record list as melting point for `CC(C)(C)CC(C)(C)C` ?
-- reply -67 to -66.5 °C

-- ask What do you get for `CC(C)(C)c1ccccc1` ?
-- reply -59.5 to -57.8 °C

-- ask What do you get for `CC(C)c1ccc(Cl)cc1` ?
-- reply -12.3 to -12 °C

-- ask What do you get for `O=C(O)CSCc1ccccc1` ?
-- reply 61 to 62 °C

-- ask What do you get for `NNC(=O)c1cccc(Br)c1` ?
-- reply 156 to 158 °C

-- ask What do you get for `NC(=O)c1ccncc1` ?
-- reply 156 to 157 °C

-- ask What do you get for `Clc1ccc(Cl)nn1` ?
-- reply 67.5 to 68 °C

-- ask What do you get for `CCC=O` ?
-- reply -81 to -80 °C

***
-- ask What does the record list as melting point for `CC(=O)Nc1ccccc1C` ?
-- reply 110 to 111 °C

-- ask What do you get for `CCN(CC)c1ccc(C=O)cc1` ?
-- reply 40 to 41 °C

-- ask What do you get for `c1ccc2c3c([nH]c2c1)CCCC3` ?
-- reply 118 to 120 °C

-- ask What do you get for `COc1ccc(Cc2nccc3cc(OC)c(OC)cc23)cc1OC` ?
-- reply 147 to 148 °C

-- ask What do you get for `CC(=O)Nc1ccc(C#N)cc1` ?
-- reply 205 to 207 °C

-- ask What do you get for `CC(=O)Nc1ccccc1Cl` ?
-- reply 87 to 89 °C

-- ask What do you get for `CCCC=C(C)C` ?
-- reply -130 °C

-- ask What do you get for `N=C(Nc1ccccc1)Nc1ccccc1` ?
-- reply 149 to 150 °C

###

condition-set: a range is the spread between reports
List of melting point values.

These recorded examples may help you get a feel for the data.
-- ask What does the record list as melting point for `BrCc1ccc(CBr)cc1` ?
-- reply 142 to 144 °C

-- ask What do you get for `Cc1ccccc1` ?
-- reply -95 to -93 °C

-- ask What do you get for `CC(C)=CC(C)(C)C` ?
-- reply -106 °C

-- ask What do you get for `COC(=O)c1ccc(C(=O)OC)cc1` ?
-- reply 141 to 142 °C

***
-- ask What does the record list as melting point for `C=CC(=C)C` ?
-- reply -146 °C

-- ask What do you get for `Brc1cncc2ccccc12` ?
-- reply 41 to 41.5 °C

-- ask What do you get for `Nc1cccc(O)c1` ?
-- reply 123 to 125 °C

-- ask What do you get for `O=C(O)c1c(F)cccc1F` ?
-- reply 158 to 159 °C

-- ask What do you get for `COC(=O)c1ccc(OC)cc1` ?
-- reply 49 to 50 °C

-- ask What do you get for `OCc1c(Cl)cccc1Cl` ?
-- reply 97 to 98 °C

-- ask What do you get for `CC(C)(C)C1=CC(=O)C=C(C(C)(C)C)C1=O` ?
-- reply 66 to 67 °C

###

condition-set: a range is the spread between reports
attribute-measured: melting point

-- ask What does the record list as melting point for `Cc1cc(O)ccc1Br` ?
-- reply 59 to 64 °C

-- ask What do you get for CC1(O)CCC(C(C)(C)O)CC1 (stereo not drawn) ?
-- reply 158 °C

-- ask What do you get for `Oc1cc(Cl)ccc1Cl` ?
-- reply 57 to 59 °C

-- ask What do you get for `O=C(c1ccccc1)c1ccncc1` ?
-- reply 70 to 72 °C

###

condition-set: a range is the spread between reports
List of melting point values.

-- ask What does the record list as melting point for CC(C)CCCC(C)C1CCC2C3CC=C4CC(O)CCC4(C)C3CCC12C (configuration not stated) ?
-- reply 148 to 149 °C

-- ask What do you get for `CNC1=Nc2ccc(Cl)cc2C(c2ccccc2)=[N+]([O-])C1` ?
-- reply 236 °C

***
-- ask What does the record list as melting point for `O=[N+]([O-])c1cccc(Cl)c1` ?
-- reply 43 to 46 °C

-- ask What do you get for `c1ccc(Cc2ccccn2)cc1` ?
-- reply 10 to 12.5 °C

-- ask What do you get for `COc1ccccc1O` ?
-- reply 28 to 32 °C

###

condition-set: a range is the spread between reports
attribute-measured: melting point

These recorded examples may help you get a feel for the data.
-- ask What does the record list as melting point for `CCCCCCCCOc1ccc(C(=O)O)cc1` ?
-- reply 101 to 103 °C

-- ask What do you get for `C/C=C/c1ccc(OC)cc1` ?
-- reply 21 to 23 °C

-- ask What do you get for `Cc1ccc(O)cc1Cl` ?
-- reply 52 to 55.5 °C

-- ask What do you get for `N#Cc1ccc(Cl)c([N+](=O)[O-])c1` ?
-- reply 99 to 100 °C

-- ask What do you get for `O=P(c1ccccc1)(c1ccccc1)c1ccccc1` ?
-- reply 156 °C

Okay, now this molecule:
-- ask What does the record list as melting point for `CC(=O)NBr` ?
-- reply 104 °C

###

condition-set: a range is the spread between reports
attribute-measured: melting point

These recorded examples may help you get a feel for the data.
-- ask What does the record list as melting point for `CC1=C(/C=C/C(C)=C/C=C/C(C)=C/C=C/C=C(C)/C=C/C=C(C)/C=C/C2=C(C)CCCC2(C)C)C(C)(C)CCC1` ?
-- reply 178 to 183 °C

-- ask What do you get for OC(CCN1CCCCC1)(c1ccccc1)C1CCCCC1 (stereo not drawn) ?
-- reply 114 to 115 °C

-- ask What do you get for `Cc1ccc(C(N)=O)cc1` ?
-- reply 159 to 163 °C

-- ask What do you get for `CC(=O)Oc1ccccc1[N+](=O)[O-]` ?
-- reply 40 to 40.5 °C

-- ask What do you get for `O=[N+]([O-])c1ccccc1-c1ccccc1` ?
-- reply 37 to 37.2 °C

-- ask What do you get for `CCCNC(=O)NS(=O)(=O)c1ccc(Cl)cc1` ?
-- reply 128 °C

-- ask What do you get for `Cc1ccc(S(N)(=O)=O)cc1` ?
-- reply 138 to 139 °C

-- ask What do you get for `CCc1cccc(C)c1C` ?
-- reply -50 to -49.5 °C

-- ask What do you get for COC(=O)C1C2CC3c4[nH]c5cc(OC)ccc5c4CCN3CC2CC(OC(=O)c2cc(OC)c(OC)c(OC)c2)C1OC (stereo not drawn) ?
-- reply 264 to 265 °C

-- ask What do you get for `COc1ccc2c(c1)CCCC2=O` ?
-- reply 78 to 79 °C

***
-- ask What does the record list as melting point for `CN(C=O)c1ccccc1` ?
-- reply 11 to 14.5 °C

-- ask What do you get for `CC(C)C(C)C` ?
-- reply -129 to -128 °C

-- ask What do you get for `NCCO` ?
-- reply 10 to 11 °C

###

condition-set: a range is the spread between reports
List of melting point values.

-- ask What does the record list as melting point for `COc1ccc(C(N)=O)cc1` ?
-- reply 165 to 166 °C

-- ask What do you get for `O=Cc1ccccc1[N+](=O)[O-]` ?
-- reply 43.5 to 46 °C

###

condition-set: a range is the spread between reports
List of melting point values.

-- ask What does the record list as melting point for `N#Cc1cccc(C=O)c1` ?
-- reply 76.5 to 77 °C

-- ask What do you get for `O=[N+]([O-])c1cc(Cl)cc(Cl)c1` ?
-- reply 64 to 65.4 °C

-- ask What do you get for `Brc1cc(Br)c(Br)cc1Br` ?
-- reply 178 to 182 °C

-- ask What do you get for `COc1ccc(C(C)=O)cc1` ?
-- reply 38 to 38.5 °C

-- ask What do you get for `Cc1cc(C)c(C(=O)O)c(C)c1` ?
-- reply 152 to 154 °C

-- ask What do you get for `CCOc1ccc([N+](=O)[O-])cc1` ?
-- reply 58 to 60 °C

***
-- ask What does the record list as melting point for `CCCCBr` ?
-- reply -112 °C

-- ask What do you get for `OCc1ccc2c(c1)OCO2` ?
-- reply 53 to 58 °C

###

condition-set: a range is the spread between reports
attribute-measured: melting point

These recorded examples may help you get a feel for the data.
-- ask What does the record list as melting point for CC12CCC(=O)C=C1CCC1C2CCC2(C)C1CCC2(C)O (stereo unspecified) ?
-- reply 163 to 164 °C

-- ask What do you get for `O=[N+]([O-])c1ccc(Oc2ccc(C(F)(F)F)cc2[N+](=O)[O-])cc1` ?
-- reply 90 to 94 °C

-- ask What do you get for `COC(=O)c1c(Cl)c(Cl)c(C(=O)OC)c(Cl)c1Cl` ?
-- reply 155 to 157 °C

-- ask What do you get for `CCc1c(C)cccc1C` ?
-- reply -16.2 to -16 °C

-- ask What do you get for CC12C=CC(=O)C=C1CCC1C2C(=O)CC2(C)C1CCC2(O)C(=O)CO (stereo unspecified) ?
-- reply 234 to 237 °C

Okay, now this compound:
-- ask What does the record list as melting point for `CCC(S)CC` ?
-- reply -111 °C
